Entry source: patent US5151417A

Collected MIC values appear next to each entry.
Tested on: Serratia marcescens ES-75
Test: In vitro antibacterial activity, Serratia marcescens ES-75 (Tables 2-6)
Assay type: cell-based
Conditions: Serratia marcescens, ES75
Protocol: Typical compounds out of the compounds described in Examples were classified into some groups. On each compound group, in vitro antibacterial activities were tested by a method known per se in the art.
Report the figure in µg/mL without appending any unit label.

Record excerpt, results attached:
{"Compound": "CCNC(=O)OC/C=C\\C1=C(C(=O)[O-])N2C(=O)C(NC(=O)/C(=N\\O)c3csc(N)n3)[C@H]2SC1.[Na+] (stereo partly drawn)", "System Name": "Serratia marcescens ES-75", "MIC / µg/mL": 0.05}
{"Compound": "CO/N=C(\\C(=O)N[C@@H]1C(=O)N2C(C(=O)[O-])=C(/C=C\\c3c(Cl)ncnc3Cl)CS[C@H]12)c1csc(N)n1.[Na+] [Example 29 (Z)]", "System Name": "Serratia marcescens ES-75", "MIC / µg/mL": 3.13}
{"Compound": "CO/N=C(\\C(=O)N[C@@H]1C(=O)N2C(C(=O)[O-])=C(/C=C\\C3CCCO3)CS[C@H]12)c1csc(N)n1.[Na+] (stereo partly drawn)", "System Name": "Serratia marcescens ES-75", "MIC / µg/mL": 0.05}
{"Compound": "CN(C)C(=O)OC/C=C\\C1=C(C(=O)[O-])N2C(=O)C(NC(=O)/C(=N\\O)c3csc(N)n3)[C@H]2SC1.[Na+] (stereo partly drawn)", "System Name": "Serratia marcescens ES-75", "MIC / µg/mL": 0.05}

Data request: Tell me its MIC given CNC(=O)OC/C=C\C1=C(C(=O)[O-])N2C(=O)C(NC(=O)/C(=N\O)c3csc(N)n3)[C@H]2SC1.[Na+] (stereo partly drawn) as the entry.
Data returned: 0.025
